# Target or system: Catalase from human erythrocytes (EC 1.11.1.6, CAT) (Homo sapiens, UniProt P04040)
# Construct: Catalase from human erythrocytes (EC 1.11.1.6, CAT); purchased Sigma–Aldrich (Poznań, Poland); host or cells: human erythrocytes (natural source)
# Sequence (P04040 2-527 limits assumed): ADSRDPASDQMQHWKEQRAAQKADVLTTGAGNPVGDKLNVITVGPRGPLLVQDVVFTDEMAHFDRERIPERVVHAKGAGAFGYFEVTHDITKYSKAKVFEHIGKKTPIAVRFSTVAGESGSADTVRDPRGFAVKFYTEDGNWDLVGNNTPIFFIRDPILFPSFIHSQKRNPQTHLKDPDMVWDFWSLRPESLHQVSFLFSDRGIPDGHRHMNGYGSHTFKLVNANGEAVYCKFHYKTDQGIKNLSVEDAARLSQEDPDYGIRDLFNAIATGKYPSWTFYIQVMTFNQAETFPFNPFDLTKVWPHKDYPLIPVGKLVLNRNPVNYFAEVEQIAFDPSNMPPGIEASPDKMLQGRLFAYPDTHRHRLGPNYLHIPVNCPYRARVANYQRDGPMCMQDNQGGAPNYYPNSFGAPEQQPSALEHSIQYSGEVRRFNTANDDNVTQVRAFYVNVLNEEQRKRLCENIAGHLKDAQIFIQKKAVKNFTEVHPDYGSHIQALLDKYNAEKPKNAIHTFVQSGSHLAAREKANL
# Experiment: Catalase (CAT) inhibition kinetics by capillary electrophoresis (hydrogen peroxide/guaiacol/tetraguaiacol)
# Format: biochemical
# Condition: inhibitor 2.50 mM; without inhibitor 1.26 ± 0.02
Recorded endpoint: Vmax

[[record]]
compound = "CCC12C(=O)C(CC)(C(c3ccccc3)=C1c1ccccc1)C1C(=O)N(CC(O)CN(C)C)C(=O)C12 (stereo not shown)"
result_value = "1.24 ± 0.06 mM/min"

[[record]]
compound = "CCC12C(=O)C(CC)(C(c3ccccc3)=C1c1ccccc1)C1C(=O)N(CC(O)CNC(C)C)C(=O)C12 (stereo not shown)"
result_value = "1.25 ± 0.04 mM/min"

[[record]]
compound = "CN(C)CC(O)CN1C(=O)C2C(C1=O)C1(C)C(=O)C2(C)C(c2ccccc2)=C1c1ccccc1 (stereo not shown)"
result_value = "1.25 ± 0.03 mM/min"

[[record]]
compound = "CC(C)NCC(O)CN1C(=O)C2C(C1=O)C1(C)C(=O)C2(C)C(c2ccccc2)=C1c1ccccc1 (stereo not shown)"
result_value = "1.24 ± 0.07 mM/min"

